target: L-lactate dehydrogenase (Plasmodium falciparum (isolate CDC / Honduras)) (UniProt Q27743); assay: PfLDH activity inhibition – cell lysate, 3D7 strain, counter-screen for P. falciparum growth inhibition project (AID 2304);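 note: 0% = vehicle and 100% = reference inhibitor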; details: P. falciparum 3D7 crude extract, LDH APAD/NBT absorbance; at 2 µM; hits give high values
Sequence (Q27743 whole entry, looked up): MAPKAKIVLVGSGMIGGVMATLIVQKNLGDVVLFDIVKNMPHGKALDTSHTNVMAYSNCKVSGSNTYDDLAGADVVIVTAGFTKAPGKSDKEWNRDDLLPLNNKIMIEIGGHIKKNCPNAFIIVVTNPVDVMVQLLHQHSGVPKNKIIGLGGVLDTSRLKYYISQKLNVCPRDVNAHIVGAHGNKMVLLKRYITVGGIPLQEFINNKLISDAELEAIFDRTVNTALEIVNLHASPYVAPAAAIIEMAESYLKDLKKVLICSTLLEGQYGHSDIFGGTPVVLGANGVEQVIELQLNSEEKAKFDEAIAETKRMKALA
Consider the following compounds and their measured inhibition readings.
Express the result in % but write the number alone.

Prompt: # lookup: inhibition of Nc1nc2c(c(=O)[nH]1)CN(S(=O)(=O)c1ccc(C(=O)N[C@@H](CCC(=O)O)C(=O)O)cc1)CC2
Response: 6

Prompt: Another compound to check: COCCN1CCN(Cc2ccc(-c3ccc(-c4nc5ccc(F)cc5[nH]4)cc3)cc2)CC1
Response: -2

Prompt: Another compound to check: O=C(N[C@@H](Cc1ccccc1)C(=O)NC1CCCCC1)c1ccc(O)c(-c2cccc(C(F)(F)F)c2)c1
Response: -2

Prompt: Another compound to check: Cc1c(CCc2cccc(F)c2F)[nH]c2ccccc2c1=O
Response: 2

Prompt: Another compound to check: CC(C)c1cc(Oc2c(I)cc(CCCc3ncc[nH]3)cc2I)ccc1O
Response: 0

Prompt: Another compound to check: Cc1cc(N2CCC(NS(=O)(=O)c3ccccc3)CC2)nc(Nc2cccc(C#N)c2)n1
Response: 3
